Measured On: T1, 4H906-bH
T1 chain: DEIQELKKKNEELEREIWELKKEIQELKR
Procedure Summary: two-hybrid library CCNG1;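 also: natural log of median RNA to DNA barcode read ratio; higher means stronger binding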
Measurement Label: interaction score
// response body must contain only the number

[in] I have this binder here, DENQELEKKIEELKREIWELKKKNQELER [4H1359-bH] , and I need its recorded interaction score.
[out] 0.0222

[in] Consider the binder shown here: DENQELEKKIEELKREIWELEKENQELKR [4H1348-bH] What is its recorded interaction score?
[out] -0.14

[in] Sample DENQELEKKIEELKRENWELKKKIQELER [4H1373-bH] — what was its interaction score?
[out] -0.627

[in] Which measured interaction score value corresponds to DKNQELKKEIEELERENWELKKKIQELER [4H3613-bH] ?
[out] -1.07

[in] Return reported interaction score; argument: DEIQELKKKIEELKRENWELEKEIQELKR [4H850-bH]
[out] -0.227

[in] Reported interaction score for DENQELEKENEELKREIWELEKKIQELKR [4H1222-bH] : what is it?
[out] -0.362

[in] Look up interaction score for this binder: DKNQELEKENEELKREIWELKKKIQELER [4H3277-bH]
[out] -0.423
